Molecular target: Integrin alpha-IIb/beta-3 (Homo sapiens, UniProt P05106+P08514)
Sequence (P05106 27-788 limits assumed): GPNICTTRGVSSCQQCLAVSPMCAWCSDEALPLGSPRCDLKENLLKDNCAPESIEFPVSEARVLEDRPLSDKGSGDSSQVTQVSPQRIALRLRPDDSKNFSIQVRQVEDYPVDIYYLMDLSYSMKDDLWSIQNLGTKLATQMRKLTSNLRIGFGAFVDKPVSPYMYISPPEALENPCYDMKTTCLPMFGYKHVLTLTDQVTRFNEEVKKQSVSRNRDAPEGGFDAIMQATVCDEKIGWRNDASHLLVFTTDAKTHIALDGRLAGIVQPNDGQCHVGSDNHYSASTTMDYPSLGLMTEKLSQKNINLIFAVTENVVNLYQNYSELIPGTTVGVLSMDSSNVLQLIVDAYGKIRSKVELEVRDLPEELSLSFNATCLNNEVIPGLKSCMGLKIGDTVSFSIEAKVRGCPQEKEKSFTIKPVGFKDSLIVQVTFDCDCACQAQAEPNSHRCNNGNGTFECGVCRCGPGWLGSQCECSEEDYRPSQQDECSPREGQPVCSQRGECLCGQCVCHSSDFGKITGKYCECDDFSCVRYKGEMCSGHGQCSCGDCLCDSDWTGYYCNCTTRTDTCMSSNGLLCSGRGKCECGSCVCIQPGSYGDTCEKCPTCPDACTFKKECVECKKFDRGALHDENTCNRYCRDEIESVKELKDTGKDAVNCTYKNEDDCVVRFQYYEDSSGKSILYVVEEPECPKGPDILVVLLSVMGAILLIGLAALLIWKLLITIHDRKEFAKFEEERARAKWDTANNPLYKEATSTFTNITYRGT
Sequence (P08514 32-887 limits assumed): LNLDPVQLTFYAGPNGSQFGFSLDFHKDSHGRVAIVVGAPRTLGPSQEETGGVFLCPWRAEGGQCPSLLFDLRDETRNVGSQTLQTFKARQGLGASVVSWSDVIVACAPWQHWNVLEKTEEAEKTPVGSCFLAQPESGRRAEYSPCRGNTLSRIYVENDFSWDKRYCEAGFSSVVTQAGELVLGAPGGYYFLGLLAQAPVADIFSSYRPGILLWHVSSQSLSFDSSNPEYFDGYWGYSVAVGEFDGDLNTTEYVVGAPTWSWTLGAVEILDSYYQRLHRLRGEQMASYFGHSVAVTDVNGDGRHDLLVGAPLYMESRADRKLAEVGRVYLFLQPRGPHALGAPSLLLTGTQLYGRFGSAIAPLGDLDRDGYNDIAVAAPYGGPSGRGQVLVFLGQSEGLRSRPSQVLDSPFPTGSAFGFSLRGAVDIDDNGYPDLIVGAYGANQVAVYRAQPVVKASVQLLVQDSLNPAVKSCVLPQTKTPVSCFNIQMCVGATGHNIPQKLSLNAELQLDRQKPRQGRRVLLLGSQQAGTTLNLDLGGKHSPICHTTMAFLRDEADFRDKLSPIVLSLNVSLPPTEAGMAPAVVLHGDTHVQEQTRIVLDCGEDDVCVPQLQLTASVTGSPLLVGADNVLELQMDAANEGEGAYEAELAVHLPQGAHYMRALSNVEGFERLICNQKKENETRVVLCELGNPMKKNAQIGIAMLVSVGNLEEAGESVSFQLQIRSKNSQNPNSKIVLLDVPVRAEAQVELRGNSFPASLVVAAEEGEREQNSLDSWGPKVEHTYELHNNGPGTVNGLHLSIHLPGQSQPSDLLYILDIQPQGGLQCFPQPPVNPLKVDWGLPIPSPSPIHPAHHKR
Sequence (P08514 891-1039 limits assumed): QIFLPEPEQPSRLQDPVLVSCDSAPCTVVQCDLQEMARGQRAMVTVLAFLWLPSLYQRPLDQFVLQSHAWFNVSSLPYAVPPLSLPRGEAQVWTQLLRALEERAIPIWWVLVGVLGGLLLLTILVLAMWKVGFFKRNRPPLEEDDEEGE
Assay: Inhibition of fibrinogen binding to glycoprotein alpha IIb beta-3 integrin of activated platelets
Labelling: IC50 reported below 200 nM becomes true; at or above becomes false.

Look over these answered cases.
O=C(O)CCNC(=O)c1cc2n(n1)CCN(CC1CCNCC1)C2=O: false
O=C(O)CCNC(=O)c1cc2n(c1)CCCN(CCC1CCNCC1)C2=O: true
O=C(O)CCNC(=O)c1cc2n(n1)CCN(CCCC1CCNCC1)C2=O: false
Cc1c(C(=O)NCCC(=O)O)cn2c1C(=O)N(CCC1CCNCC1)CC2: true

Incoming: Decide: IC50 of `Cc1c(C(=O)NCCC(=O)O)cn2c1C(=O)N(CCC1CCNCC1)CCC2` strictly below 200 nM?
Outgoing: false

Incoming: Decide: IC50 of `O=C(O)CNC(=O)c1cc2n(n1)CCN(CCCC1CCNCC1)C2=O` strictly below 200 nM?
Outgoing: false

Incoming: Decide: IC50 of `O=C(O)CCNC(=O)c1cn2c(c1-c1ccccc1)C(=O)N(CCC1CCNCC1)CCC2` strictly below 200 nM?
Outgoing: false

Incoming: Decide: IC50 of `O=C(O)CCCNC(=O)c1cc2n(n1)CCN(CC1CCNCC1)C2=O` strictly below 200 nM?
Outgoing: false

Incoming: Decide: IC50 of `O=C(O)CCNC(=O)c1cc2n(c1)CCN(CCC1CCNCC1)C2=O` strictly below 200 nM?
Outgoing: true

Incoming: Decide: IC50 of `O=C(O)CCN1CCn2nc(C(=O)NCCC3CCNCC3)cc2C1=O` strictly below 200 nM?
Outgoing: false

Incoming: Decide: IC50 of `O=C(O)CCNC(=O)c1cc2n(n1)CCN(CCC1CCNCC1)C2=O` strictly below 200 nM?
Outgoing: false
